EXPERIMENTAL_TARGET: human FSH receptor (Homo sapiens)
EXPERIMENT_DESCRIPTION: HTRF assay for measuring cAMP in cells, FSH-antagonistic effect (in the presence of hFSH)
EXPERIMENTAL_SETUP: hFSHR clone 16 cells (CHO cells stably transfected with the human FSH receptor), in the presence of 1e-9 mol/l hFSH, 37° C. for 2 h
pIC50: −log10 of the molar value.
READOUT: pIC50

Reference set (3 entries):
COMPOUND	EXPERIMENTAL_TARGET	pIC50
COc1ccc2nc(-c3cc(OC)c(OC)c(OC)c3)cc(C(=O)N[C@H](Cc3c[nH]c4ccccc34)C(C)(C)O)c2c1	human FSH receptor (Homo sapiens)	5.10
COc1cc(-c2cc(C(=O)NC(CO)Cc3c[nH]c4c(C)cccc34)c3ccccc3n2)cc(OC)c1OC (racemic)	human FSH receptor (Homo sapiens)	6.00
CCOc1ccc(-c2cccc(-c3ccccc3)c2)cc1C(=O)NC(CO)Cc1c[nH]c2ccccc12 (centres unmarked)	human FSH receptor (Homo sapiens)	6.40

1. COc1cc(COc2ccccc2CCC(=O)N[C@@H](CO)Cc2c[nH]c3ccccc23)cc(OC)c1OC
2. COc1ccc(-c2cc(CCCO)cc(C(=O)N[C@@H](CO)Cc3c[nH]c4ccccc34)c2)cc1OC
Problem: Which record shows the lower pIC50: the first, 1 , or the second, 2 ? Answer with the label corresponding to your selection.
Result: 1
(1: 5.22, 2: 5.46)

I. CC(C)c1cccc(-c2ccccc2C(=O)N[C@@H](CO)Cc2c[nH]c3ccccc23)c1
II. CCOc1ccc(-c2ccc(S(=O)(=O)CC)cc2)cc1C(=O)N[C@@H](CO)Cc1c[nH]c2ccccc12
Problem: Which record shows the lower pIC50: the first, I , or the second, II ? Answer with the label corresponding to your selection.
Result: I

====

EXPERIMENTAL_TARGET: human FSH receptor (Homo sapiens)
Sequence (P23945 18-695): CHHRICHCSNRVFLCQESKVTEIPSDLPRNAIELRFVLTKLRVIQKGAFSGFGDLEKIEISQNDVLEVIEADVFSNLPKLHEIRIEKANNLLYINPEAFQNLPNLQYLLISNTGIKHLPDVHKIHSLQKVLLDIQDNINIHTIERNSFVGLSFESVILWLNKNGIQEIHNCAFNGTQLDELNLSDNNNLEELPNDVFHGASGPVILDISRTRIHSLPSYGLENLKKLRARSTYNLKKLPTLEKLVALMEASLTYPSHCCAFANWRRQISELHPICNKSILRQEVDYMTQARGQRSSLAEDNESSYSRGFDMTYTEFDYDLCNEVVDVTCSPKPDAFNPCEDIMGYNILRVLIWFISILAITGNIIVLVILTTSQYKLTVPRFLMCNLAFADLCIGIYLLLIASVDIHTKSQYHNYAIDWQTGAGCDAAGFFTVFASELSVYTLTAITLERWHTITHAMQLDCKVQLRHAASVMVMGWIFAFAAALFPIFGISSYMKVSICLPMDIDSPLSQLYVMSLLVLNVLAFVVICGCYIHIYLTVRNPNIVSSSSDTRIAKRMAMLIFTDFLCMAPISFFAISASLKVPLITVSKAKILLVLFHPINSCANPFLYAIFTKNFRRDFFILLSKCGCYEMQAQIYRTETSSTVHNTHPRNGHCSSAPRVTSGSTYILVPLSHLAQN
EXPERIMENT_DESCRIPTION: HTRF assay for measuring cAMP in cells, FSH-antagonistic effect (in the presence of hFSH)
EXPERIMENTAL_SETUP: hFSHR clone 16 cells (CHO cells stably transfected with the human FSH receptor), in the presence of 1e-9 mol/l hFSH, 37° C. for 2 h
READOUT: IC50 (µM)

Reference set (3 entries):
COMPOUND	IC50, µM
COc1ccc(-c2cccc(C(=O)N[C@@H](CO)Cc3cn(CCCCC#N)c4ccccc34)c2)cc1F [Example 403]	0.1
COc1cc(-c2cc(C(=O)N[C@@H](CO)Cc3c[nH]c4ccccc34)c3cc([N+](=O)[O-])ccc3n2)cc(OC)c1OC [Example 19]	6
COc1ccc2nc(-c3cc(OC)c(OC)c(OC)c3)cc(C(=O)N[C@@H](CO)Cc3cn(C)c4ccccc34)c2c1 [Example 22]	0.3

P. COc1cc(-c2cc(C#CCO)cc(C(=O)N[C@@H](CO)Cc3c[nH]c4ccccc34)c2)cc(OC)c1OC [Example 379]
Q. COc1cc(-c2cc(/C=C\CCCO)cc(C(=O)N[C@@H](CO)Cc3c[nH]c4ccccc34)c2)cc(OC)c1OC [Example 388]
Problem: Which record shows the lower IC50: the first, P , or the second, Q ? Answer with the label corresponding to your selection.
Result: Q
(Q: 0.4 µM, P: 4.5 µM)

====

EXPERIMENTAL_TARGET: human FSH receptor (Homo sapiens)
EXPERIMENT_DESCRIPTION: HTRF assay for measuring cAMP in cells, FSH-antagonistic effect (in the presence of hFSH)
EXPERIMENTAL_SETUP: hFSHR clone 16 cells (CHO cells stably transfected with the human FSH receptor), in the presence of 1e-9 mol/l hFSH, 37° C. for 2 h
READOUT: IC50 (µM)

COMPOUND	EXPERIMENTAL_TARGET	IC50 (µM)
COc1ccc2nc(/C=C/c3ccc(OC)c(OC)c3)cc(C(=O)N[C@@H](CO)Cc3c[nH]c4ccccc34)c2c1 [Example 38]	human FSH receptor (Homo sapiens)	0.9
COc1cc(-c2cc(C(=O)N[C@@H](CO)Cc3c[nH]c4ccccc34)c3nc[nH]c3c2)cc(OC)c1OC [Example 361]	human FSH receptor (Homo sapiens)	4
COc1ccc(OC)c(-c2cccc(C(=O)N[C@@H](CO)Cc3c[nH]c4ccccc34)c2)c1 [Example 87]	human FSH receptor (Homo sapiens)	10
COc1cc(-c2cc(C(=O)NC(CO)Cc3c[nH]c4ccc(Br)cc34)c3ccccc3n2)cc(OC)c1OC (racemic) [Example 1]	human FSH receptor (Homo sapiens)	7
CCCCCCn1cc(C[C@H](CO)NC(=O)c2cc(-c3cc(OC)c(OC)c(OC)c3)nc3ccc(OC)cc23)c2ccccc21 [Example 345]	human FSH receptor (Homo sapiens)	1

A. COc1ccc2nc(-c3ccc(OC)c(OC)c3OC)cc(C(=O)N[C@@H](CO)Cc3c[nH]c4ccccc34)c2c1 [Example 16]
B. COc1ccc2nc(-c3ccc(OC)c(F)c3)nc(C(=O)N[C@@H](CO)Cc3c[nH]c4ccccc34)c2c1 [Example 368]
Problem: Which record shows the lower IC50: the first, A , or the second, B ? Answer with the label corresponding to your selection.
Result: B
(B: 2.5 µM, A: 4 µM)

====

EXPERIMENTAL_TARGET: human FSH receptor (Homo sapiens)
Construct: expressed in transfected cells; host or cells: CHO cells (hFSHR clone 16)
Sequence (P23945 18-695): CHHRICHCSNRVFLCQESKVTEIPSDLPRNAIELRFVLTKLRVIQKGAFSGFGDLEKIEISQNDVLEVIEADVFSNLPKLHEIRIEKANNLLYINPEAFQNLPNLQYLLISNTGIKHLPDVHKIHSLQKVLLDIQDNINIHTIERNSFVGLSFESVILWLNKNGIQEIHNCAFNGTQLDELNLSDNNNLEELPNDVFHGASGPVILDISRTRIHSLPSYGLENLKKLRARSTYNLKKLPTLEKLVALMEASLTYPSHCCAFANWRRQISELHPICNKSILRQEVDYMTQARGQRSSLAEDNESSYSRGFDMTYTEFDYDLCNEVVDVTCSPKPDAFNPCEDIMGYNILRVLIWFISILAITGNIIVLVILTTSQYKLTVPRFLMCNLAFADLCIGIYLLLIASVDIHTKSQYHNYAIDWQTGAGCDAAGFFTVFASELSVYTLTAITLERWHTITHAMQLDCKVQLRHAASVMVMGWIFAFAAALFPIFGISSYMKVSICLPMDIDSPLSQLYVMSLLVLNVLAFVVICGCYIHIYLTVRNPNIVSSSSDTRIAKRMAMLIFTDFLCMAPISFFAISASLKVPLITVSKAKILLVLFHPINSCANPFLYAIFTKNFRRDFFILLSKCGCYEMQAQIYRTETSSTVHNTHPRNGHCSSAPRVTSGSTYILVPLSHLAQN
EXPERIMENT_DESCRIPTION: HTRF assay for measuring cAMP in cells, FSH-antagonistic effect (in the presence of hFSH)
Type: cell-based
EXPERIMENTAL_SETUP: hFSHR clone 16 cells (CHO cells stably transfected with the human FSH receptor), in the presence of 1e-9 mol/l hFSH, 37° C. for 2 h
pIC50: −log10 of the molar value.
READOUT: pIC50

Reference set (5 entries):
MOLECULE	EXPERIMENTAL_TARGET	pIC50
COCCCc1ccc2nc(-c3cc(OC)c(OC)c(OC)c3)cc(C(=O)N[C@@H](CO)Cc3c[nH]c4ccccc34)c2c1	human FSH receptor (Homo sapiens)	5.82
O=C(N[C@@H](CO)Cc1c[nH]c2ccccc12)c1cc(-c2ccc3c(c2)CCO3)nc2ccccc12	human FSH receptor (Homo sapiens)	5.22
O=C(N[C@@H](CO)Cc1c[nH]c2ccccc12)c1cc(-c2ccc3c(c2)OCO3)ccc1OC1CCCC1	human FSH receptor (Homo sapiens)	6.52
CC(C)c1cccc(-c2cccc(C(=O)N[C@@H](CO)Cc3c[nH]c4ccccc34)c2)c1	human FSH receptor (Homo sapiens)	5.22
CCOc1ccc(-c2cnc(OC)nc2)cc1C(=O)N[C@@H](CO)Cc1c[nH]c2ccccc12	human FSH receptor (Homo sapiens)	5.40

1. COc1ccc2nc(CCc3ccc(OC)c(OC)c3)cc(C(=O)N[C@@H](CO)Cc3c[nH]c4ccccc34)c2c1
2. Cc1nc(C)c(-c2cc(C(=O)N[C@@H](CO)Cc3c[nH]c4ccccc34)c3cc(Br)ccc3n2)s1
3. COc1cc(-c2cc(C(=O)NC(CO)Cc3c[nH]c4ccc(OCc5ccccc5)cc34)c3ccccc3n2)cc(OC)c1OC (racemic)
4. COc1ccc(-c2ccc(OC)c(C(=O)N[C@@H](CO)Cc3c[nH]c4ccccc34)c2)cc1F
5. COc1ccc2nc(-c3cc4c(F)cccc4o3)cc(C(=O)N[C@@H](CO)Cc3c[nH]c4ccccc34)c2c1
Problem: Given 5 molecules, produce a descending ranking by pIC50. List the labels according to the requested ordering.
Result: 3, 4, 5, 2, 1
(3: 6.70, 4: 6.35, 5: 5.82, 2: 5.52, 1: 5.15)

1. CCn1cc(C[C@H](CO)NC(=O)c2cc(-c3cc(F)c(OC)c(F)c3)nc3ccc(OC)cc23)c2ccccc21
2. COc1cc(-c2cc(C(=O)N[C@@H](CO)Cc3c[nH]c4ccccc34)c3cc(F)ccc3n2)cc(OC)c1OC
3. COc1ccc(-c2cc(F)c(F)c(F)c2)c(C(=O)N[C@@H](CO)Cc2c[nH]c3ccccc23)c1
4. CCOc1ccc(-c2ccc(C)cc2)cc1C(=O)N[C@@H](CO)Cc1c[nH]c2ccccc12
Problem: Sort entries by pIC50 from minimum to maximum value. List the labels according to the requested ordering.
Result: 3, 1, 4, 2

1. COc1cc(-c2cc(C(=O)NC(CO)Cc3c[nH]c4cc(F)ccc34)c3ccccc3n2)cc(OC)c1OC (racemic)
2. COc1ccc2cc(-c3cc(C(=O)N[C@@H](CO)Cc4c[nH]c5ccccc45)c4ccccc4n3)ccc2c1
Problem: Identify the entry with the larger pIC50. Options: 1 and 2 Answer with the label corresponding to your selection.
Result: 1
(1: 6.00, 2: 5.40)

Hey, just so you know, these numbers are from patent US20070060573A1.
